Reference for the values: ChEMBL document CHEMBL3272207

So I've got a bunch of compounds here, and I need their ED50 values.
Test system: Mus musculus
Protocol: Behavioral toxicity in po dosed albino Icem-CET (SPF Caw) mouse assessed as positional passivity by Irwin's test
Type: organism-based
Particulars: in vivo
API: value field is a number in mg/kg; no unit string.

Req: Retrieve ED50 measured for C/C(C(=O)NC1CC1)=C(/C)c1ccccc1 and print it.
Resp: 250

Req: Retrieve ED50 measured for CCC1(c2ccccc2)C(=O)N=C([O-])NC1=O.[Na+] (stereo unspecified) [PHENOBARBITAL SODIUM] and print it.
Resp: 180

Req: Retrieve ED50 measured for C/C(C(=O)NC1CC1)=C(\C)c1ccc(Br)cc1 and print it.
Resp: 450

Req: Retrieve ED50 measured for C/C(C(=O)NC1CC1)=C(/C)c1ccc(C)cc1 and print it.
Resp: 300

Req: Retrieve ED50 measured for C/C(C(=O)NC1CC1)=C(/C)c1ccc(F)cc1 and print it.
Resp: 200

Req: Retrieve ED50 measured for C#CCNC(=O)/C(C)=C(\C)c1ccc(Cl)cc1 and print it.
Resp: 400

Req: Retrieve ED50 measured for C=CCNC(=O)/C(C)=C(\C)c1ccccc1 and print it.
Resp: 300

Req: Retrieve ED50 measured for C#CCNC(=O)/C(C)=C(\C)c1ccccc1 and print it.
Resp: 400

Req: Retrieve ED50 measured for C#CCNC(=O)/C(C)=C(\C)c1ccc(OC)cc1 and print it.
Resp: 400

Req: Retrieve ED50 measured for C=CCNC(=O)/C(C)=C(\C)c1ccc(Cl)cc1 and print it.
Resp: 90

Req: Retrieve ED50 measured for C=CCNC(=O)/C(C)=C(/C)c1ccc(F)cc1 and print it.
Resp: 300

Req: Retrieve ED50 measured for C#CCNC(=O)/C(C)=C(\C)c1ccc(C)cc1 and print it.
Resp: 200

Req: Retrieve ED50 measured for C#CCNC(=O)/C(C)=C(\C)c1ccc(Br)cc1 and print it.
Resp: 500

Req: Retrieve ED50 measured for C=CCNC(=O)/C(C)=C(\C)c1cc(OC)c(OC)c(OC)c1 and print it.
Resp: 280

Req: Retrieve ED50 measured for C#CCNC(=O)/C(C)=C(\C)c1ccc(F)cc1 and print it.
Resp: 200

Req: Retrieve ED50 measured for C=CCNC(=O)/C(C)=C(\C)c1ccc(Br)cc1 and print it.
Resp: 500

Req: Retrieve ED50 measured for C=CCNC(=O)/C(C)=C(\C)c1ccc(F)cc1 and print it.
Resp: 150

Req: Retrieve ED50 measured for C/C(C(=O)NC1CC1)=C(/C)c1ccc(Br)cc1 and print it.
Resp: 600

Req: Retrieve ED50 measured for C#CCNC(=O)/C(C)=C(\C)c1cc(OC)c(OC)c(OC)c1 and print it.
Resp: 300

Req: Retrieve ED50 measured for COc1ccc(/C(C)=C(\C)C(=O)NC2CC2)cc1 and print it.
Resp: 300

Req: Retrieve ED50 measured for C=CCNC(=O)/C(C)=C(\C)c1ccc(OC)cc1 and print it.
Resp: 300

Req: Retrieve ED50 measured for C/C(C(=O)NC1CC1)=C(\C)c1ccc(C)cc1 and print it.
Resp: 500

Req: Retrieve ED50 measured for C=CCNC(=O)/C(C)=C(/C)c1ccc(Cl)cc1 and print it.
Resp: 280

Req: Retrieve ED50 measured for C=CCNC(=O)/C(C)=C(\C)c1ccc(C)cc1 and print it.
Resp: 170

###

System: Mus musculus
Protocol: Behavioral toxicity in po dosed albino Icem-CET (SPF Caw) mouse assessed as tremors by Irwin's test
Assay type: organism-based
Particulars: in vivo
So I've got a bunch of compounds here, and I need their ED50 values.
Please append the unit to your numeric answer.

Req: Retrieve ED50 measured for C#CCNC(=O)/C(C)=C(\C)c1cc(OC)c(OC)c(OC)c1 and print it.
Resp: 150 mg/kg

Req: Retrieve ED50 measured for C=CCNC(=O)/C(C)=C(\C)c1cc(OC)c(OC)c(OC)c1 and print it.
Resp: 190 mg/kg

Req: Retrieve ED50 measured for C#CCNC(=O)/C(C)=C(\C)c1ccc(F)cc1 and print it.
Resp: 100 mg/kg

Req: Retrieve ED50 measured for C=CCNC(=O)/C(C)=C(\C)c1ccccc1 and print it.
Resp: 250 mg/kg

Req: Retrieve ED50 measured for C/C(C(=O)NC1CC1)=C(/C)c1ccccc1 and print it.
Resp: 150 mg/kg

Req: Retrieve ED50 measured for C=CCNC(=O)/C(C)=C(/C)c1ccccc1 and print it.
Resp: 400 mg/kg

Req: Retrieve ED50 measured for C/C(C(=O)NC1CC1)=C(/C)c1ccc(Cl)cc1 and print it.
Resp: 150 mg/kg

Req: Retrieve ED50 measured for C=CCNC(=O)/C(C)=C(\C)c1ccc(C)cc1 and print it.
Resp: 150 mg/kg

Req: Retrieve ED50 measured for C=CCNC(=O)/C(C)=C(/C)c1ccc(OC)cc1 and print it.
Resp: 400 mg/kg

Req: Retrieve ED50 measured for C/C(C(=O)NC1CC1)=C(\C)c1ccc(F)cc1 and print it.
Resp: 600 mg/kg

Req: Retrieve ED50 measured for C#CCNC(=O)/C(C)=C(\C)c1ccc(Br)cc1 and print it.
Resp: 150 mg/kg

Req: Retrieve ED50 measured for C/C(C(=O)NC1CC1)=C(\C)c1ccccc1 and print it.
Resp: 300 mg/kg

Req: Retrieve ED50 measured for C/C(C(=O)NC1CC1)=C(/C)c1ccc(C)cc1 and print it.
Resp: 150 mg/kg

Req: Retrieve ED50 measured for C=CCNC(=O)/C(C)=C(\C)c1ccc(OC)cc1 and print it.
Resp: 300 mg/kg

Req: Retrieve ED50 measured for C#CCNC(=O)/C(C)=C(\C)c1ccc(C)cc1 and print it.
Resp: 150 mg/kg

Req: Retrieve ED50 measured for C=CCNC(=O)/C(C)=C(\C)c1ccc(Br)cc1 and print it.
Resp: 500 mg/kg

Req: Retrieve ED50 measured for C=CCNC(=O)/C(C)=C(\C)c1ccc(F)cc1 and print it.
Resp: 130 mg/kg

Req: Retrieve ED50 measured for C/C(C(=O)NC1CC1)=C(/C)c1ccc(Br)cc1 and print it.
Resp: 130 mg/kg

Req: Retrieve ED50 measured for C/C(C(=O)NC1CC1)=C(\C)c1ccc(Cl)cc1 and print it.
Resp: 600 mg/kg

Req: Retrieve ED50 measured for C=CCNC(=O)/C(C)=C(/C)c1ccc(F)cc1 and print it.
Resp: 250 mg/kg

Req: Retrieve ED50 measured for C=CCNC(=O)/C(C)=C(/C)c1ccc(C)cc1 and print it.
Resp: 400 mg/kg

Req: Retrieve ED50 measured for COc1ccc(/C(C)=C(/C)C(=O)NC2CC2)cc1 and print it.
Resp: 300 mg/kg

Req: Retrieve ED50 measured for COc1ccc(/C(C)=C(\C)C(=O)NC2CC2)cc1 and print it.
Resp: 250 mg/kg

Req: Retrieve ED50 measured for CCC1(c2ccccc2)C(=O)N=C([O-])NC1=O.[Na+] (stereo unspecified) [PHENOBARBITAL SODIUM] and print it.
Resp: 110 mg/kg

Req: Retrieve ED50 measured for C#CCNC(=O)/C(C)=C(\C)c1ccc(OC)cc1 and print it.
Resp: 150 mg/kg

Req: Retrieve ED50 measured for C#CCNC(=O)/C(C)=C(\C)c1ccc(Cl)cc1 and print it.
Resp: 200 mg/kg

###

System: Mus musculus
Protocol: Behavioral toxicity in po dosed albino Icem-CET (SPF Caw) mouse assessed as tremors by Irwin's test
Type: organism-based
Particulars: in vivo
So I've got a bunch of molecules here, and I need their ED50 values.
API: value field is a number in mg/kg; no unit string.

Req: Retrieve ED50 measured for C#CCNC(=O)/C(C)=C(\C)c1ccccc1 and print it.
Resp: 150

Req: Retrieve ED50 measured for O=C1NC(=O)C(c2ccccc2)(c2ccccc2)N1 [PHENYTOIN] and print it.
Resp: 250

Req: Retrieve ED50 measured for C/C(C(=O)NC1CC1)=C(/C)c1ccc(F)cc1 and print it.
Resp: 70

Req: Retrieve ED50 measured for C=CCNC(=O)/C(C)=C(\C)c1ccc(Cl)cc1 and print it.
Resp: 70

Req: Retrieve ED50 measured for C=CCNC(=O)/C(C)=C(/C)c1ccc(Cl)cc1 and print it.
Resp: 400

###

System: Mus musculus
Protocol: Behavioral toxicity in po dosed albino Icem-CET (SPF Caw) mouse assessed as reduction in locomotor activity by Irwin's test
Assay type: organism-based
Particulars: in vivo
Quantity kind: ED50 (mg/kg)
API: value field is a number in mg/kg; no unit string.

Req: Retrieve ED50 measured for O=C1NC(=O)C(c2ccccc2)(c2ccccc2)N1 [PHENYTOIN] and print it.
Resp: 150

Req: Retrieve ED50 measured for C=CCNC(=O)/C(C)=C(\C)c1cc(OC)c(OC)c(OC)c1 and print it.
Resp: 110

Req: Retrieve ED50 measured for C=CCNC(=O)/C(C)=C(\C)c1ccc(Cl)cc1 and print it.
Resp: 70

Req: Retrieve ED50 measured for COc1ccc(/C(C)=C(\C)C(=O)NC2CC2)cc1 and print it.
Resp: 250

Req: Retrieve ED50 measured for C#CCNC(=O)/C(C)=C(\C)c1ccc(Br)cc1 and print it.
Resp: 180

Req: Retrieve ED50 measured for C#CCNC(=O)/C(C)=C(\C)c1ccc(F)cc1 and print it.
Resp: 100

Req: Retrieve ED50 measured for C#CCNC(=O)/C(C)=C(\C)c1ccc(C)cc1 and print it.
Resp: 120

Req: Retrieve ED50 measured for CCC1(c2ccccc2)C(=O)N=C([O-])NC1=O.[Na+] (stereo not drawn) [PHENOBARBITAL SODIUM] and print it.
Resp: 180
